Test system: P. falciparum stage V gametocytes
Set-up: BacTiter-Glo ATP luminescence viability of purified stage V gametocytes in 384-well plates, per cent inhibition versus DMSO
condition set: 48 h, 5 µM; inhibitor
In all, about 13,000 compounds went through this assay and about 3,200 (25%) showed an effect of 50% or more. The list shows a part of the results.

{"columns": ["compound", "unit label", "% Inhibition"],
 "data": [
  ["Cc1cc(C(=O)Nc2ccc3c(c2)CCN3C2CCN(Cc3ccc(O)cc3)C2)no1 (centres unmarked)", "%", -0.5259],
  ["CC[C@H](C)CNC(=O)c1cccc(-c2cccc(CN3CCC(N4CCCC4)CC3)c2)n1", "%", 16.22],
  ["CC[C@H](C)CNC(=O)c1ccnc(-c2ccc(CN3CCC(N4CCCC4)CC3)cc2)c1", "%", 36.18],
  ["O=C1C(c2ccccc2)=C(Nc2cccc(OC(F)(F)C(F)F)c2)c2ccccc21", "%", 65.78],
  ["O=C(CCc1cnc[nH]1)Nc1ccc(-c2ccc(-c3nc4ccc(F)cc4[nH]3)cc2)cc1", "%", 4.733],
  ["O=C(Nc1ccc(-c2nc3ccccc3[nH]2)cc1)c1ccc(S(=O)(=O)N2CCCCC2)cc1", "%", -22.63],
  ["CC[C@H](C)CNC(=O)c1cccc(-c2ccc(CN3CCC(N4CCCC4)CC3)cc2)n1", "%", 57.67],
  ["COc1cccc(CNC(=O)c2cnc(N3CCN(c4ccncc4)CC3)c(Cl)c2)c1", "%", 35.94]
]}

* * *

# % Inhibition values compiled below
Tested on: P. falciparum stage V gametocytes
Design: BacTiter-Glo ATP luminescence viability of purified stage V gametocytes in 384-well plates, per cent inhibition versus DMSO
condition set: 48 h, 5 µM; inhibitor
In all, about 13,000 compounds went through this assay and about 3,200 (25%) showed an effect of 50% or more. The list shows a part of the results.
reported property: % Inhibition (%)

{"columns": ["molecule", "experimental target", "observed"],
 "data": [
  ["CC(C)(C)c1nn(-c2ccc(Cl)cc2)c2[nH]c(=O)c(CNCc3cccs3)cc12 [TCMDC-123908]", "P. falciparum stage V gametocytes", 55.18],
  ["COc1ccc(CCNCc2cc3c(C(C)(C)C)nn(-c4ccc(Cl)cc4)c3[nH]c2=O)cc1OC [TCMDC-125351]", "P. falciparum stage V gametocytes", 40.9],
  ["CC(C)(C)c1nn(-c2ccccc2)c2[nH]c(=O)c(CNCc3ccc4c(c3)OCO4)cc12 [TCMDC-123910]", "P. falciparum stage V gametocytes", 11.81],
  ["CC(C)(C)c1nn(-c2ccc(Cl)cc2)c2[nH]c(=O)c(CNCc3ccc4c(c3)OCO4)cc12 [TCMDC-136662]", "P. falciparum stage V gametocytes", 74.56]
]}

* * *

System: P. falciparum stage V gametocytes
Design: BacTiter-Glo ATP luminescence viability of purified stage V gametocytes in 384-well plates, per cent inhibition versus DMSO
condition set: 48 h, 5 µM; inhibitor
In all, about 13,000 compounds went through this assay and about 3,200 (25%) showed an effect of 50% or more. This is one part of the list.
The threshold is inclusive: % Inhibition of exactly 10% counts as 1 (yes); values below receive 0 (no).

{"columns": ["compound", "category label"],
 "data": [
  ["COc1ccc(C(=O)N2CCC3(CC2)C(=O)N(CC(=O)NCC2CCCCC2)CN3c2ccccc2)cc1 [TCMDC-125171]", "0 (no)"],
  ["Cc1ccc(S(=O)(=O)n2nccc2-c2c(-c3ccc(Cl)cc3)noc2C)cc1 [TCMDC-124500]", "1 (yes)"],
  ["Cc1noc(C)c1S(=O)(=O)N(C)Cc1ccc(-c2ccc(Cl)cc2)o1 [TCMDC-125303]", "0 (no)"],
  ["O=S(=O)(Nc1ccc(CCN2CCC(N3CCCCC3)CC2)cc1)c1ccc(Cl)cc1 [TCMDC-134078]", "1 (yes)"],
  ["O=C(N[C@H]1CCCC[C@H]1C(=O)O)c1ccccc1 [TCMDC-124293]", "0 (no)"],
  ["Cc1cc(Nc2ccc(O)cc2)nc2cccc(O)c12 [TCMDC-124414]", "0 (no)"],
  ["Cc1cc(N2CCC(C)CC2)nc2cc(O)ccc12 [TCMDC-124413]", "0 (no)"],
  ["O=C(Nc1ccc(Oc2cccnc2)cc1)C1CCN(Cc2cc(Cl)ccc2O)CC1 [TCMDC-124640]", "0 (no)"],
  ["Cc1nc2ccc3ccc(CNc4ccc5c(c4)CN([C@H](CCC(=O)O)C(=O)O)C5=O)cc3c2c(=O)[nH]1 [TCMDC-138033]", "1 (yes)"],
  ["Cc1ccccc1CNCC(O)c1cccc(C(F)(F)F)c1 (stereo not drawn) [TCMDC-140393]", "0 (no)"],
  ["Cc1ccc(NS(=O)(=O)c2ccc(C(C)N3CCC(N4CCCCC4)CC3)cc2)cc1C (stereo not drawn) [TCMDC-133540]", "1 (yes)"],
  ["Cc1cc(NC(=O)Nc2ccc(C(C)C)cc2)c2ccccc2n1 [TCMDC-139826]", "0 (no)"],
  ["CCc1ccc(S(=O)(=O)Nc2cccc(CCN3CCC(N4CCCCC4)CC3)c2)cc1 [TCMDC-134077]", "1 (yes)"],
  ["COc1ccc(C(=O)NC2CCN(c3ccnc4cc(Cl)ccc34)C2)cc1 (stereo not drawn) [TCMDC-133648]", "1 (yes)"],
  ["Cc1ccn2c(N(Cc3ccccc3)C(=O)c3ccc(Cl)c(Cl)c3)c(-c3ccccc3)nc2c1 [TCMDC-141396]", "0 (no)"],
  ["Cc1noc(C)c1-c1ccc2c(Nc3ccccc3C(C)(C)C)c(C(=O)NCc3ccc(OC(C)C)cc3)cnc2c1.Cl [TCMDC-136370]", "0 (no)"],
  ["CCNc1cc(C(=O)N[C@@H](Cc2ccc(Cl)cc2)[C@H](O)CNC2CCCCC2)cc(N2CCCCS2(=O)=O)c1 [TCMDC-135201]", "1 (yes)"],
  ["Cc1cc(NC(=O)Nc2ccc(C(C)(C)C)cc2)c2ccccc2n1 [TCMDC-139981]", "1 (yes)"],
  ["C[C@H](NC(=O)c1c(CN2CCC(N3CCCCC3)CC2)c(-c2ccccc2)nc2cc(O)ccc12)C1CCCCC1 [TCMDC-140408]", "1 (yes)"],
  ["O=S(=O)(Nc1cccc(CCN2CCC(N3CCCCC3)CC2)c1)c1ccc(Cl)cc1 [TCMDC-134065]", "1 (yes)"],
  ["COc1ccc(C=CC(=O)Nc2ccc(N3CCCC3)cc2)cc1 [TCMDC-125750]", "0 (no)"],
  ["CCn1ncc2c(N3CCCC3=O)cc(C(=O)N[C@@H](Cc3ccccc3)[C@H](O)CNC(C)(C)c3cccc(C(F)(F)F)c3)cc21 [TCMDC-135064]", "1 (yes)"],
  ["C[C@@H](Nc1nc(NCc2ccccc2)c2sccc2n1)c1ccccc1 [TCMDC-136500]", "0 (no)"],
  ["CSc1ccc(NC(=O)Nc2cc(C)nc3ccccc23)cc1 [TCMDC-139394]", "1 (yes)"],
  ["O=C1c2ccc([N+](=O)[O-])cc2C(=O)N1c1ccc2[nH]ncc2c1 [TCMDC-131599]", "0 (no)"],
  ["COc1cc(CNc2ccc(N3CCCC3)cc2)cc(Cl)c1OC [TCMDC-124518]", "1 (yes)"],
  ["O=C(Nc1cccc(Cl)c1)OC1CCCN2CCCCC12 (stereo not drawn) [TCMDC-132073]", "1 (yes)"],
  ["CCc1cn(C)c2c(N3CCCC3=O)cc(C(=O)N[C@@H](Cc3ccccc3)[C@H](O)CNC(C)(C)c3cccc(C(F)(F)F)c3)cc12 [TCMDC-135197]", "1 (yes)"],
  ["CC(C)(CNC(=O)[C@@H]1CCCCN1)c1nc(-c2ccc(Cl)c(O)c2)c(-c2ccncc2)[nH]1 [TCMDC-141079]", "0 (no)"],
  ["Cc1onc(-c2ccc(Cl)cc2)c1-c1ccnn1S(=O)(=O)c1ccc(Cl)cc1 [TCMDC-123770]", "1 (yes)"],
  ["COc1ccc(CNC2CCN(c3ccc(NC(=O)c4cccc(Cl)c4)cc3)CC2)cc1OC [TCMDC-124658]", "0 (no)"],
  ["O=S(=O)(Nc1cccc(CCN2CCC(N3CCCCC3)CC2)c1)c1ccc(Oc2ccccc2)nc1 [TCMDC-134073]", "1 (yes)"],
  ["CC(C)(C)C(C)(C)Cc1ccc(O)c(CN2CCN(c3ccccc3)CC2)c1 [TCMDC-125678]", "0 (no)"]
]}

* * *

System: P. falciparum stage V gametocytes
Design: BacTiter-Glo ATP luminescence viability of purified stage V gametocytes in 384-well plates, per cent inhibition versus DMSO
condition set: 48 h, 5 µM; inhibitor
Out of some 13,000 compounds screened, about 3,200 (25%) showed an effect of 50% or more. This is one part of the list.

{"columns": ["molecule", "% Inhibition"],
 "data": [
  ["O=C(c1cccs1)N1N=C(c2cccs2)CC1c1cccc([N+](=O)[O-])c1 (stereo not shown)", "10.72%"],
  ["COc1ccc(Nc2nc(NC3CCCC3)cc(-c3ccc(OC)cc3)n2)cc1", "-75.14%"],
  ["Cc1c(CN2CCC(N3CCC(C(=O)NC4CC4)CC3)CC2)[nH]c2c(Cl)cccc12", "11.69%"],
  ["Cc1ccccc1Cn1c(CN2CCC(C(=O)NC3CC3)CC2)cc2ccccc21", "50.21%"],
  ["C#CCOc1ccc2ccccc2c1CNCCCCCCNCc1c(OCC#C)ccc2ccccc12", "115.4%"],
  ["O=C(NCCN1CCCC1)c1ccc(-c2cccc(-c3nc4ccc(F)cc4[nH]3)c2)cc1", "-17.02%"],
  ["CCOc1cc(C(=O)N[C@@H](Cc2ccccc2)[C@H](O)CNCc2cc(OC)cc(OC)c2)cc(N2CCCCS2(=O)=O)c1", "22.64%"],
  ["COc1ccc(-c2cc(C(=O)Nc3ccc4nc(-c5ccccc5)[nH]c4c3)[nH]n2)cc1", "-1.351%"],
  ["CCOc1cc2c(cc1OCC)C(c1cc(OC)c(O)cc1Cl)NCC2 (stereo not shown)", "-19.03%"],
  ["C#CCCOc1ccc2ccccc2c1CNCCCCCCNCc1c(OCCC#C)ccc2ccccc12", "106.3%"],
  ["O=C(NC1CC1)C1CCN(Cc2cc3ccccc3n2Cc2ccc(Cl)cc2)CC1", "41.24%"],
  ["COc1ccc(NC(=O)/C=C/c2ccc(Oc3ccccc3Cl)c([N+](=O)[O-])c2)cc1OCCN(C(C)C)C(C)C", "-71.01%"],
  ["Cc1ccc(C(C)C)cc1CON1C(N)=NC(N)=NC1(C)C", "26.53%"],
  ["O=C(Nc1ccc2c(c1)CCC2)c1cnc(N2CCN(c3ccncc3)CC2)c(Cl)c1", "8.854%"],
  ["Cc1noc(C)c1-c1cccc(CNCc2cccc(-c3ccc(-c4nc5cc(C(F)(F)F)ccc5[nH]4)s3)c2)c1.O=C(O)C(F)(F)F", "0.7472%"],
  ["COc1cc(F)c2ncc(Cl)c(C(O)CN3CCC(NC(=O)c4ccc5c(c4)NC(=O)CS5)CC3)c2c1 (stereo not shown)", "-70.28%"]
]}
